Cited source for all entries: PubChem BioAssay

experiment: compound effects on lung adenocarcinoma cell viability – A549, calcein-AM fluorescence, 48 h, basal, profiling panel (AID 1162); conditions: higher = more signal; note: test concentration not given here
Measured parameter: z-score
Reply with the value as a number alone.

Compound	z-score
C[N+](C)(C)CCCC[C@@H]1NC(=O)[C@@H]2C[C@H](C(=O)NCCCCCCNC(=O)CS)[C@H](c3cccc(OCCO)c3)N2C1=O	-0.14

Record `NC(=O)[C@@]1(CCS(=O)(=O)c2ccccc2)N=C(c2ccc(OCCCO)cc2)O[C@H]1c1ccccc1` , field z-score: -0.291

Record CN1C(=O)C2C=CC(C(O)C3=C[C@H]4C[C@@H](C3)C4(C)C)N(Nc3ccc([N+](=O)[O-])cc3[N+](=O)[O-])C2C1=O (stereo partly specified) , field z-score: 0.895

Record `CCOC(=O)C[C@H]1[C@H](OC(=O)c2ccc(C(=O)c3ccccc3)cc2)[C@@H](NC(=O)c2ccc3ccccc3n2)c2cc(OCCCO)ccc2N1C(=O)c1ccc2ccccc2n1` , field z-score: 0.602

Record CC1(C)C(=O)C(c2ccccc2)=C2CN3C(=O)N(CCc4ccccc4)C(=O)C3(Cc3ccccc3)C=C21 (stereo unspecified) , field z-score: -0.739

Record CC(C)(C)OC(=O)CC[C@]1(C(=O)NCC(O)CO)N=C(c2ccc(OCCCO)cc2)O[C@H]1c1ccccc1CN=[N+]=[N-] (stereo partly specified) , field z-score: -1.22

----------
biological target: Torsin-1A-interacting protein 1 (Homo sapiens) (UniProt Q5JTV8); test: compound microarray binding of lysate hLAP1 – cell lysate, small-molecule microarray, COS7 lysate, 635/667 nm fluorescence, primary screen (AID 1116); settings: 635 nm fluorescence, higher = more signal
Sequence (Q5JTV8 whole entry, looked up): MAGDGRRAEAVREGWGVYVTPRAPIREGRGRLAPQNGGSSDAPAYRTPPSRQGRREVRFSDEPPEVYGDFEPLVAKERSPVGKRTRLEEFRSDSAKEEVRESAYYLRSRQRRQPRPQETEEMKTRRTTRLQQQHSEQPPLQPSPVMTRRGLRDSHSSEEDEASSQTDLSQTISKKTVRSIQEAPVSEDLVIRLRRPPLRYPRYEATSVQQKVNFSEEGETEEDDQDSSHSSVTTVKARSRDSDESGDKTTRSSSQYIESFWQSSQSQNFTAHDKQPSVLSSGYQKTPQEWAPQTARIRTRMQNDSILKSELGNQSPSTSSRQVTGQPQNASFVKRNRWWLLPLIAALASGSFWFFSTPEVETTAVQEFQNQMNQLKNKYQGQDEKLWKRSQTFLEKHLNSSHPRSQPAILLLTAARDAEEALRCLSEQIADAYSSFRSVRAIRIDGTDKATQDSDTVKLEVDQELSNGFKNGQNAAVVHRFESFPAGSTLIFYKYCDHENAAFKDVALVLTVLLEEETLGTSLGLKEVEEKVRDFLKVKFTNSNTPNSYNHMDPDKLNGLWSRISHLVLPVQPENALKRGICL
Measured parameter: composite z-score
Reply with the value as a number alone.

Record `COCCOC(=O)N1C(=O)[C@@]2(c3cc(C#CCC(C(=O)OC)C(=O)OC)ccc31)[C@H](c1ccc(OCCO)cc1)N1[C@H](c3ccccc3)[C@H](c3ccccc3)OC(=O)[C@H]1[C@@H]2C(=O)NC[C@H](O)c1ccccc1` , field composite z-score: 0.402

Record `COc1ccc([Si](C)(C)[C@H]2[C@H](CC(=O)N(CCO)Cc3ccccc3)O[C@@]3(C(=O)N(Cc4cccc(N5C(=O)c6cccc7cccc5c67)c4)c4ccccc43)[C@@H]2C)cc1` , field composite z-score: 0.389

Record `C=C(C(=O)CC[C@H](OC(=O)c1cccnc1)c1ccccc1OCCO)C(C)C` , field composite z-score: 1.99

Record CC1CC/C=C\[C@H]2OC34C=CCN(Cn5nnc6ccccc65)C(=O)[C@H]3N(CCCO)C(=O)[C@@H]4C2C(=O)O1 (stereo partly specified) , field composite z-score: 0.479

Record `O=S(=O)(NCCCO)c1ccc(Br)cc1` , field composite z-score: 0.365

Record `C[C@]1(C(=O)NCC(F)(F)F)c2ccccc2C(=O)N(Cc2cc(F)cc(C(F)(F)F)c2)[C@H]1c1ccc(CO)cc1` , field composite z-score: 0.729

----------
target: Torsin-1A-interacting protein 2 (Homo sapiens) (UniProt Q8NFQ8); test: small molecules binding lysate-expressed LULL1 – cell lysate, human LULL1 lysate, 635/667 nm fluorescence, primary screen (AID 1092); settings: small-molecule microarray, hLULL1 lysate binding, 635 nm fluorescence; higher = more signal;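 note: probe is lysate of COS7 cells overexpressing human LULL1; score merges per-feature 667 nm fluorescence with signal-to-noise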
Sequence (Q8NFQ8 whole entry, looked up): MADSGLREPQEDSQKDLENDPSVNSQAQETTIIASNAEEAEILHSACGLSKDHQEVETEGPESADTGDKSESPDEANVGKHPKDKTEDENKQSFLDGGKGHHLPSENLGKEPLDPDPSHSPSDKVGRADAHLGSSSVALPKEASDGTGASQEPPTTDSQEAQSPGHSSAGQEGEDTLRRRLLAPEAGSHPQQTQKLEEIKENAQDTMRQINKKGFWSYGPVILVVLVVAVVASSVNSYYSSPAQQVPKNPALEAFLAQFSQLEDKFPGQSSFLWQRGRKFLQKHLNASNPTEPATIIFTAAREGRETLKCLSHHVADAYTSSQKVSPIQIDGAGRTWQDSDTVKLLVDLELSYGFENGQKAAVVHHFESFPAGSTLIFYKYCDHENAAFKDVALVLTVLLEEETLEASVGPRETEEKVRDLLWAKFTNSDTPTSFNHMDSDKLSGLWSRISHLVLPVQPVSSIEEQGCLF
Measured parameter: composite z-score

Below are worked cases with known answers.
Molecule	composite z-score
NC(=O)[C@]1(Cc2ccccc2)N=C(c2ccc(OCCCO)cc2)O[C@@H]1c1ccccc1	3.54
O=C(NCC(O)CO)[C@]1(CCS(=O)(=O)c2ccccc2)N=C(c2ccc(OCCCO)cc2)O[C@@H]1c1ccccc1 (some centres undefined)	3.67
COc1ccc([Si](C)(C)[C@@H]2[C@@H](CC(=O)N3Cc4ccccc4C[C@H]3CO)O[C@]3(C(=O)N(Cc4cccc(N5C(=O)COc6ccccc65)c4)c4ccccc43)[C@H]2C)cc1	1.25

Record `COc1ccc([Si](C)(C)[C@@H]2[C@@H](CCO)O[C@]3(C(=O)N(Cc4cccc(N5CCCCC5=O)c4)c4ccccc43)[C@H]2C)cc1` , field composite z-score: 2.54

----------
experiment: probe aDKK1 binding to arrayed compounds – biochemical, biotinylated probe, 635/667 nm fluorescence, primary screen (AID 1099); settings: small-molecule microarray, higher = more signal;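 note: score merges 667nm spot fluorescence with signal to noise across triplicate slides; reference of the scale not given here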
Measured parameter: composite z-score
Reply with the value as a number alone.

Below are worked cases with known answers.
Compound	Measured parameter	Assay result
C=CCC(OC(C)=O)[C@@H]1[C@@H](N(Cc2ccc(-c3cccc(C(F)(F)F)c3)o2)C(=O)Cc2ccc(OC)cc2)c2cc(OCCCO)ccc2N1C(=O)Cc1ccc(OC)cc1 (some centres undefined)	composite z-score	-0.22
O=C1OCCC=C[C@H]2OC34C=CCN(c5ccc6ccccc6c5)C(=O)[C@H]3N(CCCCCCO)C(=O)[C@@H]4C12 (some centres undefined)	composite z-score	-0.0082
CC(C)(C)OC(=O)CC[C@@]1(C(N)=O)N=C(c2ccc(OCCCO)cc2)O[C@@H]1c1ccccc1N=[N+]=[N-]	composite z-score	0.751

Now, please, on to the next compound.
Record `C=C(CCCC)C(=O)CC[C@H](OC(C)=O)c1ccc(CO)o1` , field composite z-score: -0.402

----------
assay: binders from COS7 lysate, DM2A8 probe, primary screen, torsin A project, cell lysate, small-molecule microarray, fluorescence 635/667 (AID 1065); details: higher = more signal, COS7 lysate expressing mutant human TOR1A
Measured parameter: composite z-score
Reply with the value as a number alone.

Record `CC(=O)NCCCC[C@@H]1NC(=O)[C@@H]2C[C@H](C(=O)NCc3ccc(F)cc3)[C@H](c3ccc(O)cc3)N2C1=O` , field composite z-score: 0.798

Record CCCCCCCCCCC(O)C1C=CC2C(=O)N(c3ccccc3)C(=O)C2N1Nc1ccc([N+](=O)[O-])cc1 (stereo not drawn) , field composite z-score: 0.112

Record `C=CCOC(=O)[C@H]1[C@@H]2C(=O)O[C@@H](c3ccccc3)[C@@H](c3ccccc3)N2[C@@H](c2ccc(OCCOC(=O)[C@H]3C[C@H]4C(=O)N[C@@H](CCCC[N+](C)(C)C)C(=O)N4[C@H]3c3ccc(O)cc3)cc2)[C@]12C(=O)Nc1ccccc12` , field composite z-score: 0.154

Record `C=C(/C(=C/C[C@@H](OC(C)=O)c1ccc(CO)o1)c1cnc2ccccc2c1)C(C)C` , field composite z-score: 1.53

Record `C=CC[C@@]1(C(=O)NCCN2CCOCC2)N=C(c2ccc(OCCCO)cc2)O[C@@H]1c1ccccc1CN=[N+]=[N-]` , field composite z-score: 0.812

Record `O=[N+]([O-])c1ccc(C[n+]2ccc(CCCO)cc2)o1` , field composite z-score: 0.218

Record `[N-]=[N+]=NCc1ccccc1[C@@H]1OC(c2ccc(OCCCO)cc2)=N[C@]1(Cc1ccccc1N=[N+]=[N-])C(N)=O` , field composite z-score: -0.523

Record `C[N+](C)(C)CCCC[C@@H]1NC(=O)[C@H]2C[C@@H](C(=O)O)[C@@H](c3cccc(OCCO)c3)N2C1=O` , field composite z-score: 1.85

----------
assay: growth modulation of vineyard yeast isolate – strain RM11-1a, OD600, basal, 24 h, primary screen (AID 1177);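 note: cultures grown under basal conditions with no added stressor; test concentration not given here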; details: S. cerevisiae RM11-1a growth, OD600, 24 h; higher = more signal, called active from +8 up or from −8 down
Active and inactive are the calls of the source.
Measured parameter: z-score

Compound structure string	z-score
O=C(N1CCCCC1)[C@]1(CCS(=O)(=O)c2ccccc2)N=C(c2ccc(OCCCO)cc2)O[C@@H]1c1ccccc1	0.525 (inactive)
C=CCNC(=O)[C@H]1[C@@H]2C(=O)O[C@@H](c3ccccc3)[C@@H](c3ccccc3)N2[C@@H](c2ccc(OCCO)cc2)[C@]12C(=O)N(C(=O)OCCOC)c1ccc(C#CC3(O)CCCCCC3)cc12	2.43 (inactive)
COCCOC(=O)N1C(=O)[C@@]2(c3cc(C#Cc4ccc(OC)cc4)ccc31)[C@H](c1ccc(O)cc1)N1[C@H](c3ccccc3)[C@H](c3ccccc3)OC(=O)[C@H]1[C@@H]2C(=O)N1CCN(c2ncccn2)CC1	1.75 (inactive)

Now, please, on to the next molecule.
Record `O=C(CS)NCCCCCNC(=O)[C@H]1C[C@H]2C(=O)N[C@@H](Cc3ccccc3)C(=O)N2[C@H]1c1cccc(OCCO)c1` , field z-score: -0.572 (inactive)

----------
test: JC-1 mitochondrial signal, unstimulated MM1S myeloma – cell-based, JC-1 fluorescence, 24 h, 100 nL compound, profiling panel (AID 1170); settings: MM1S mitochondrial potential, higher = more signal; note: test concentration not given here
Measured parameter: z-score
Reply with the value as a number alone.

Below are worked cases with known answers.
Compound	z-score
[N-]=[N+]=NCc1ccccc1[C@@H]1OC(c2ccc(OCCCO)cc2)=N[C@]1(Cc1ccccc1N=[N+]=[N-])C(N)=O	-0.0745
O=c1cccc(-c2ccc3ccccc3c2)o1	-0.288
CC(=O)n1cc(C(O)C2C=CC3C(=O)N(c4ccccc4)C(=O)C3N2Nc2ccc(C#N)cc2)c2ccccc21 (centres undefined)	-0.488

Now, please, on to the next compound.
Record `C=CCNC(=O)[C@H]1[C@@H]2C(=O)O[C@@H](c3ccccc3)[C@@H](c3ccccc3)N2[C@@H](c2ccc(O)cc2)[C@]12C(=O)Nc1ccc(C#Cc3ccc(OC)cc3)cc12` , field z-score: -0.614
